Molecular target: Acetylcholinesterase (Homo sapiens)
Assay: Acetylcholinesterase (AChE) small molecule antagonists: enzyme-based qHTS assay (AID 1347397); further: nearly all actives have a fitted effect of over 55% in size
Settings: AChE enzyme activity inhibition; series mostly up to 115 µM
Calls of active or inactive are those of the source. The call rests on the fitted dose curve.
Assay Readout: outcome

>>> val("O=C(/C=C/c1ccccc1)OCc1ccccc1")
"inactive"
>>> val("C=CC(=O)OCCOC(=O)CCC(=O)O")
"inactive"
>>> val("O=[N+]([O-])c1ccc2c(c1)Cc1ccccc1-2")
"inactive"
>>> val("CC(Cl)C(Cl)Cl (stereo not drawn)")
"inactive"
>>> val("CC(C)(C)OCC1CO1 (stereo not drawn)")
"inactive"
>>> val("Fc1ccc(Br)cc1")
"inactive"
>>> val("CC1(C)O[C@H]2CC(=O)OC[C@]23[C@H]2CC[C@@]4(C)[C@H](c5ccoc5)OC(=O)[C@H]5O[C@]54[C@]2(C)C(=O)C[C@@H]13")
"inactive"
>>> val("Nc1cc(=O)[nH]c(N)n1")
"inactive"
>>> val("O=c1n(CC2CO2)c(=O)n(CC2CO2)c(=O)n1CC1CO1 (stereo not drawn)")
"inactive"
>>> val("COc1ccc(C(=O)c2ccccc2)c(O)c1")
"inactive"
>>> val("CCCCCC(CO)CCC (stereo not drawn)")
"inactive"
>>> val("COCCOCCOCCOCCO")
"inactive"
>>> val("NC(N)=Nc1nc(CSCC/C(N)=N/S(N)(=O)=O)cs1")
"inactive"

###

Target: Acetylcholinesterase (Homo sapiens)
Assay: Acetylcholinesterase (AChE) small molecule antagonists: fluorescence cell-based qHTS assay (AID 1347398); further: nearly all actives have a fitted effect of over 50% in size
Details: SH-SY5Y cells; AChE activity; series mostly up to 115 µM
Inconclusive results are not listed. The source made the active and inactive calls. Calls follow the shape of the full dose curve.
Outcome codes: y = active, n = inactive

>>> group("COc1cc2c(c(OC)c1OC)-c1ccc(OC)c(=O)cc1[C@@H](NC(C)=O)CC2")
"n"
>>> group("O=C(O)c1ccccc1C(=O)OCc1ccccc1")
"n"
>>> group("CNc1ccccc1")
"n"
>>> group("Cc1ccc(C(C)(C)C)c(O)c1")
"n"
>>> group("OCCOCC#CCOCCO")
"n"
>>> group("O=c1cc(O)c(Cl)c[nH]1")
"n"
>>> group("CCC(C)(C)C(=O)O[C@H]1C[C@@H](C)C=C2C=C[C@H](C)[C@H](CC[C@@H]3C[C@@H](O)CC(=O)O3)[C@H]21")
"n"
>>> group("CC(CC(=O)O)CC(C)(C)C (stereo not drawn)")
"n"
>>> group("C#C[C@]1(O)CC[C@H]2[C@@H]3CCc4cc(OC)ccc4[C@H]3CC[C@@]21C")
"n"
>>> group("O=C(c1ccccc1)c1ccc(O)cc1O")
"n"
>>> group("Brc1ccccc1-c1ccccc1")
"n"
>>> group("Cc1nnc(NS(=O)(=O)c2ccc(N)cc2)s1")
"n"
>>> group("CCCCCCCCCCn1cc[n+](CCCCCCCCCC)c1C")
"y"

###

Test: qHTS assay to identify small molecule antagonists of the estrogen receptor alpha (ER-alpha) signaling pathway using the BG1 cell line in the presence of 0.1 nM 17-beta-estradiol - cell viability counter screen (AID 1259241); further: nearly all actives have a fitted effect of over 40% in size
Conditions: VM7Luc4E2 (BG1) viability, CellTiter-Fluor protease, 22 h, 0.1 nM estradiol agonist added; series mostly up to 92.4 µM
Results filed as inconclusive are left out. Calls of active or inactive are those of the source. Calls come from the whole dose curve; as a rule, active = well fitted cell-killing curve with a large enough effect in the repeat runs; inconclusive = weak or mixed curves, or effect the other way; inactive = flat fitted curve, though single readings scatter.
Outcome codes: true (1) for active, false (0) for inactive

>>> group("Cc1cc(C(C)(C)c2ccc(O)c(C)c2)ccc1O")
"false (0)"
>>> group("C[C@]12CC[C@@H](O)C[C@@H]1CC[C@@H]1[C@@H]2CC[C@]2(C)C(=O)CC[C@@H]12")
"false (0)"
>>> group("COc1ccc(C(c2ccc(OC)cc2)C(Cl)(Cl)Cl)cc1")
"false (0)"
>>> group("O=C1C(I)=CC(=C(c2cc(I)c(O)c(I)c2)c2ccccc2C(=O)O)C=C1I")
"false (0)"
>>> group("ClC1=C(Cl)[C@]2(Cl)[C@@H]3[C@@H](Cl)[C@H]4O[C@H]4[C@@H]3C1(Cl)C2(Cl)Cl")
"false (0)"
>>> group("CN1CSC(=S)N(C)C1")
"true (1)"
>>> group("CN(C)CCCCCCN(C)C")
"false (0)"
>>> group("Cc1nnc2n1-c1sc(CCc3ccc(CC(C)C)cc3)cc1C(c1ccccc1Cl)=NC2C (configuration not stated)")
"false (0)"
>>> group("CNC(=O)Oc1cc(C)c(SC)c(C)c1")
"false (0)"
>>> group("O=[N+]([O-])c1c(Cl)c(Cl)cc(Cl)c1Cl")
"false (0)"
>>> group("CCN(CC)C(=O)Cl")
"false (0)"
>>> group("c1ccc2c(c1)Sc1ccccc1N2CC1CN2CCC1CC2 (configuration not stated)")
"false (0)"

###

Assay: qHTS assay to identify small molecule agonists of the estrogen related receptor signaling pathway with the pleiotropic PPARgamma coactivator (PGC) from Tox21 10K library (AID 1224842); further: nearly all actives have a fitted effect of over 15% in size
Details: PGC/ERR reporter cell line, luciferase ONE-Glo, 18 h; series mostly up to 92.4 µM
Results filed as inconclusive are left out. Active and inactive are the calls of the source. Calls come from the whole dose curve; as a rule, active = well fitted activation curve with a large enough effect in the repeat runs; inconclusive = weak or mixed curves, or effect the other way; inactive = no such curve, though single readings can be large or run the other way.
Outcome codes: Y (active), N (inactive)

>>> group("Nc1ccc(Cl)cc1[N+](=O)[O-]")
"N"
>>> group("N#Cc1cc([N+](=O)[O-])ccc1N")
"N"
>>> group("CCN(CC)C(=O)Cl")
"N"
>>> group("ClC1=C(Cl)[C@]2(Cl)[C@@H]3[C@@H](Cl)[C@H]4O[C@H]4[C@@H]3C1(Cl)C2(Cl)Cl")
"N"
>>> group("Cc1cccc(C)c1")
"N"
>>> group("CCc1cccc(C)c1N")
"N"
>>> group("Oc1c(I)cc(I)cc1I")
"N"
>>> group("O=P(OC(CCl)CCl)(OC(CCl)CCl)OC(CCl)CCl")
"N"
>>> group("CC(c1ccccc1)(c1ccc(O)cc1)c1ccc(O)cc1")
"N"
>>> group("CO/C=C(/C(=O)OC)c1ccccc1Oc1cc(Oc2ccccc2C#N)ncn1")
"N"
>>> group("CCCCC(CC)COC(=O)c1ccc(C(=O)OCC(CC)CCCC)cc1 (configuration not stated)")
"N"
>>> group("Cc1nnc2n1-c1sc(CCc3ccc(CC(C)C)cc3)cc1C(c1ccccc1Cl)=NC2C (configuration not stated)")
"N"
>>> group("CCC1C(=O)OCC1Cc1cncn1C (configuration not stated)")
"N"
>>> group("O=[N+]([O-])c1c(Cl)c(Cl)cc(Cl)c1Cl")
"N"
>>> group("O=C(O)/C=C\\C(=O)O")
"N"
>>> group("Cc1cc(C(C)(C)c2ccc(O)c(C)c2)ccc1O")
"N"
>>> group("O=C(O)/C=C/C(=O)O")
"N"
>>> group("O=Nc1ccc(Nc2ccccc2)cc1")
"Y"
>>> group("CCn1cc(C(=O)O)c(=O)c2ccc(C)nc21")
"N"
>>> group("c1ccc2c(c1)Sc1ccccc1N2CC1CN2CCC1CC2 (configuration not stated)")
"N"
>>> group("CC(N)C(=O)OC(C)(C)Cc1ccc(Cl)cc1 (configuration not stated)")
"N"
>>> group("CC1COC(Cn2cncn2)(c2ccc(Oc3ccc(Cl)cc3)cc2Cl)O1 (configuration not stated)")
"N"
>>> group("CN1CSC(=S)N(C)C1")
"N"
>>> group("Nc1ccc(Cl)cc1Cl")
"N"
>>> group("COc1ccc(C(c2ccc(OC)cc2)C(Cl)(Cl)Cl)cc1")
"N"
>>> group("Oc1c(Cl)ccc(Cl)c1Cl")
"N"
>>> group("O=C(c1ccccc1)C(Cl)Cl")
"N"

###

Test: qHTS assay to identify small molecule agonists of the estrogen receptor alpha (ER-alpha) signaling pathway in the presence of an antagonist - cell viability counter screen (AID 1259386);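 further: cells exposed to compounds for 22 h at 37 °C before the viability read; nearly all actives have a fitted effect of over 30% in size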
Details: VM7Luc4E2 viability, CellTiter-Fluor fluorescence, 22 h; series mostly up to 92.4 µM
Inconclusive results are not listed. The source made the active and inactive calls. Calls come from the whole dose curve; as a rule, active = well fitted cell-killing curve with a large enough effect in the repeat runs; inconclusive = weak or mixed curves, or effect the other way; inactive = no such curve, though single readings can be large or run the other way.
Outcome codes: yes (1) (active), no (0) (inactive)

>>> group("CCOC(=O)C(O)(c1ccc(Cl)cc1)c1ccc(Cl)cc1")
"no (0)"
>>> group("Oc1c(I)cc(I)cc1I")
"no (0)"
>>> group("OCC(c1ccc(Cl)cc1)c1ccc(Cl)cc1")
"no (0)"
>>> group("c1ccc2c(c1)Sc1ccccc1N2CC1CN2CCC1CC2 (configuration not stated)")
"no (0)"
>>> group("CNC(=O)Oc1cc(C)c(SC)c(C)c1")
"no (0)"
>>> group("O=[N+]([O-])c1c(Cl)c(Cl)cc(Cl)c1Cl")
"no (0)"
>>> group("O=C(c1ccccc1)C(Cl)Cl")
"no (0)"
>>> group("CO/C=C(/C(=O)OC)c1ccccc1Oc1cc(Oc2ccccc2C#N)ncn1")
"yes (1)"
>>> group("C[C@]12CC[C@@H](O)C[C@@H]1CC[C@@H]1[C@@H]2CC[C@]2(C)C(=O)CC[C@@H]12")
"no (0)"
>>> group("Clc1ccccc1-c1ccccc1Cl")
"no (0)"
>>> group("ClC(Cl)=C(c1ccc(Cl)cc1)c1ccccc1Cl")
"no (0)"
>>> group("Nc1ccc([N+](=O)[O-])cc1")
"yes (1)"
>>> group("Cc1ccc(N(SC(F)(Cl)Cl)S(=O)(=O)N(C)C)cc1")
"no (0)"
>>> group("CCN(CC)C(=O)Cl")
"no (0)"
>>> group("CN1CSC(=S)N(C)C1")
"no (0)"
>>> group("OC(Cc1ccccc1Cl)(Cn1[nH]cnc1=S)C1(Cl)CC1 (configuration not stated)")
"no (0)"
>>> group("O=C1C(I)=CC(=C(c2cc(I)c(O)c(I)c2)c2ccccc2C(=O)O)C=C1I")
"no (0)"
